experiment: Cytotoxicity against human MSC assessed as cell viability after 48 hrs by CCK-8 assay; type: toxicity, cell-based; conditions: mesenchymal stem cells (MSC)
testReadout: IC50 at 48 h (µM)
Just the number in µM, nothing appended.

Field request: IC50 at 48 h | item: O=C(Nc1nc(-c2ccc(OC(F)(F)F)cc2)cs1)c1cc(=O)c2ccccc2o1
17.7

Try COc1ccc2sc(NC(=O)c3cc(=O)c4ccccc4o3)nc2c1 next.
6.25

Try O=C(Nc1nc(-c2ccc(F)cc2)cs1)c1cc(=O)c2ccccc2o1 next.
7.56

Try O=C(Nc1nc2cc(F)ccc2s1)c1cc(=O)c2ccccc2o1 next.
4.34

* * *

system: SK-OV-3; assay: Antiproliferative activity against human SK-OV-3 cells assessed as cell viability after 48 hrs by CCK-8 assay; assay type: functional, cell-based; conditions: SK-OV-3, 48 h
Examples of compounds with documented IC50 follow.
Just the number in nM, nothing appended.

{"molecularString": "COc1ccc2sc(NC(=O)c3cc(=O)c4ccccc4o3)nc2c1", "IC50 [nM]": 390}
{"molecularString": "O=C(Nc1nc(-c2ccc(OC(F)(F)F)cc2)cs1)c1cc(=O)c2ccccc2o1", "IC50 [nM]": 490}
{"molecularString": "O=C(Nc1nc2cc(F)ccc2s1)c1cc(=O)c2ccccc2o1", "IC50 [nM]": 420}

We next turn to a different compound, shown below.
Field request: IC50 | item: O=C(Nc1nc(-c2ccc(F)cc2)cs1)c1cc(=O)c2ccccc2o1
440

* * *

molecular target: Casein kinase 2 (Homo sapiens, UniProt P67870+P68400+P19784+Q8NEV1); assay: Inhibition of CK2 (unknown origin); format: protein assay
Binned IC50; ranges: low range (below 200 nM), mid range (200 nM to below 400 nM), high range (400 nM or more)

{"molecularString": "Cc1csc(NC(=O)c2cc(=O)c3ccccc3o2)n1", "category": "high range"}
{"molecularString": "Cc1cc2nc(NC(=O)c3cc(=O)c4ccccc4o3)sc2cc1C", "category": "mid range"}
{"molecularString": "O=C(Nc1nc(-c2ccc(C(F)(F)F)cc2)cs1)c1cc(=O)c2ccccc2o1", "category": "mid range"}
{"molecularString": "O=C(Nc1nc2ccc(Br)cc2s1)c1cc(=O)c2ccccc2o1", "category": "mid range"}

Quick check: band for O=C(Nc1nc(-c2ccc(F)cc2)cs1)c1cc(=O)c2ccccc2o1
low range

Try Cc1nnc(NC(=O)c2cc(=O)c3ccccc3o2)o1 next.
high range

Try O=C(Nc1nc2cc(Br)ccc2s1)c1cc(=O)c2ccccc2o1 next.
mid range

Try O=C(Nc1nc2ccc(OC(F)(F)F)cc2s1)c1cc(=O)c2ccccc2o1 next.
low range

Try O=C(Nc1nc2ccccc2s1)c1cc(=O)c2ccccc2o1 next.
mid range

Try Cc1ccc(-c2csc(NC(=O)c3cc(=O)c4ccccc4o3)n2)cc1 next.
mid range

Try O=C(Nc1nnco1)c1cc(=O)c2ccccc2o1 next.
high range

* * *

molecular target: Casein kinase 2 (Homo sapiens, UniProt P67870+P68400+P19784+Q8NEV1); experiment: Inhibition of CK2 (unknown origin); format: protein assay
Examples of molecules with documented IC50 follow.
Just the number in µM, nothing appended.

{"molecularString": "Cc1cnc(NC(=O)c2cc(=O)c3ccccc3o2)s1", "unitsText": "µM", "IC50": 7.11}
{"molecularString": "O=C(Nc1ncc(Br)s1)c1cc(=O)c2ccccc2o1", "unitsText": "µM", "IC50": 5.44}
{"molecularString": "O=C(Nc1nc(-c2cccc(C(F)(F)F)c2)cs1)c1cc(=O)c2ccccc2o1", "unitsText": "µM", "IC50": 5.55}

Field request: IC50 | item: O=C(Nc1ncco1)c1cc(=O)c2ccccc2o1
4.88

Try Cc1nc(NC(=O)c2cc(=O)c3ccccc3o2)sc1C next.
6.11

Try O=C(Nc1nc(-c2ccccc2)cs1)c1cc(=O)c2ccccc2o1 next.
0.61

Try O=C(Nc1nc(-c2ccc(O)cc2)cs1)c1cc(=O)c2ccccc2o1 next.
0.74

Try Cc1cccc(-c2csc(NC(=O)c3cc(=O)c4ccccc4o3)n2)c1 next.
4.12

Try O=C(Nc1nccs1)c1cc(=O)c2ccccc2o1 next.
5.21

Try O=C(Nc1nc2ccc(C(F)(F)F)cc2s1)c1cc(=O)c2ccccc2o1 next.
0.2

Try Cc1ccc2nc(NC(=O)c3cc(=O)c4ccccc4o3)sc2c1 next.
0.37

* * *

molecular target: Casein kinase 2 (Homo sapiens, UniProt P67870+P68400+P19784+Q8NEV1); assay: Inhibition of CK2 (unknown origin); type: protein assay
testReadout: IC50 (µM)
Just the number in µM, nothing appended.

Illustrative cases are given below, each with its answer.
{"molecularString": "O=C(Nc1nc2ccc(F)cc2s1)c1cc(=O)c2ccccc2o1", "IC50 [µM]": 0.24}
{"molecularString": "CC(C)c1csc(NC(=O)c2cc(=O)c3ccccc3o2)n1", "IC50 [µM]": 5.34}
{"molecularString": "O=Cc1cnc(NC(=O)c2cc(=O)c3ccccc3o2)s1", "IC50 [µM]": 4.98}

Field request: IC50 | item: O=C(Nc1nc(-c2ccc(OC(F)(F)F)cc2)cs1)c1cc(=O)c2ccccc2o1
0.18

Try O=C(O)c1cc(=O)c2ccccc2o1 next.
5.98

Try COc1ccc2nc(NC(=O)c3cc(=O)c4ccccc4o3)sc2c1 next.
0.29

Try CC(C)Cc1csc(NC(=O)c2cc(=O)c3ccccc3o2)n1 next.
4.35

Try N#Cc1cccc(-c2csc(NC(=O)c3cc(=O)c4ccccc4o3)n2)c1 next.
5.09

* * *

biological target: Casein kinase 2 (Homo sapiens, UniProt P67870+P68400+P19784+Q8NEV1); assay: Inhibition of CK2 (unknown origin); assay type: protein assay
testReadout: IC50 (nM)
Just the number in nM, nothing appended.

Illustrative cases are given below, each with its answer.
{"molecularString": "O=C(Nc1nc2cc(F)ccc2s1)c1cc(=O)c2ccccc2o1", "subjectOfTest": "Casein kinase 2 (Homo sapiens, UniProt P67870+P68400+P19784+Q8NEV1)", "unitsText": "nM", "IC50": 110}
{"molecularString": "COc1ccc2sc(NC(=O)c3cc(=O)c4ccccc4o3)nc2c1", "subjectOfTest": "Casein kinase 2 (Homo sapiens, UniProt P67870+P68400+P19784+Q8NEV1)", "unitsText": "nM", "IC50": 80}

We next turn to a different molecule, shown below.
Please tell me: IC50 of COc1ccc(-c2csc(NC(=O)c3cc(=O)c4ccccc4o3)n2)cc1 , system Casein kinase 2 (Homo sapiens, UniProt P67870+P68400+P19784+Q8NEV1)?
590

Every entry's value here was drawn from ChEMBL document CHEMBL5126564.
